Would you mind telling me the reported pKi of each entry?
# Target Under Test: CYP3A4 (Homo sapiens)
# Sequence (P08684 whole entry): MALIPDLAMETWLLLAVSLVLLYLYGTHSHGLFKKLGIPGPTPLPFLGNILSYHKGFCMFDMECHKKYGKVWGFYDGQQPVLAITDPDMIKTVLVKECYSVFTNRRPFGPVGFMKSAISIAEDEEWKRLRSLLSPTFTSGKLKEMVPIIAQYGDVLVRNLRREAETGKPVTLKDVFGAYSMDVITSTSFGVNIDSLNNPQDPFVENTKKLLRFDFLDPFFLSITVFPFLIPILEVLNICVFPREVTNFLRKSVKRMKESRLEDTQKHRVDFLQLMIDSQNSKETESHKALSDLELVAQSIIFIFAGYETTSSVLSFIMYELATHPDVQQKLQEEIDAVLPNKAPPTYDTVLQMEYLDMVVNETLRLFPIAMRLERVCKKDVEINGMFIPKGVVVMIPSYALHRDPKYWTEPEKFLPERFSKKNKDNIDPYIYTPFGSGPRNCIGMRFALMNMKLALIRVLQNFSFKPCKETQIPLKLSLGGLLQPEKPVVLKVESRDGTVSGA
# Experimental Details: Determination of compound Kiapp against recombinant CYP3A4 enzyme (BFC fluorescent substrate)
# Assay type: biochemical
# Test Parameters: Super. enzyme preparation, read-out: Kiapp (BFC, Super.)
Units for pKi: none; it is -log10 of a concentration expressed in mol/L.

Task: For the compound `COc1ccncc1NS(=O)(=O)c1ccccc1C(=O)N(C)Cc1ccc(C(F)(F)F)cc1` , what pKi is on record?
Result: 7.82

Task: Record request: pKi value, item `CCOc1ccncc1NS(=O)(=O)c1ccccc1C(=O)N(C)Cc1cccc(F)c1`
Result: 7.59

Task: Which pKi is listed for `COc1cncc(NS(=O)(=O)c2ccccc2C(=O)NCCc2cccnc2)c1` ?
Result: 7.72

Task: # get_value(readout='pKi', item= `COc1cncc(NS(=O)(=O)c2ccccc2C(=O)NCCc2ccc(C(F)(F)F)c(F)c2)c1` )
Result: 8.06
